# PROCEDURE_DETAILS: clinical
# TEST_SETTINGS: human, in vivo, iv, 24 mg/m2
Listing of entries alongside the reported Cmax.
ENDPOINT: Cmax (µg/mL)

CC(=O)O[C@@]12CO[C@@H]1C[C@H](O)[C@@]1(C)C(=O)[C@H](O)C3=C(C)[C@@H](OC(=O)[C@H](O)[C@@H](NC(=O)OC(C)(C)C)c4ccccc4)C[C@@](O)([C@@H](OC(=O)c4ccccc4)[C@H]21)C3(C)C | 0.149
CC(=O)O[C@@]12CO[C@@H]1C[C@H](O)[C@@]1(C)C(=O)[C@H](O)C3=C(C)[C@@H](OC(=O)[C@H](OC(=O)CN4CCN(C)CC4)[C@@H](NC(=O)OC(C)(C)C)c4ccccc4)C[C@@](O)([C@@H](OC(=O)c4ccccc4)[C@H]21)C3(C)C | 13.7

---

# PROCEDURE_DETAILS: clinical
# TEST_SETTINGS: human, in vivo, iv, 190 mg/m2, t1/2
Listed below: half-life values for each entry.
ENDPOINT: half-life

CC(=O)O[C@@]12CO[C@@H]1C[C@H](O)[C@@]1(C)C(=O)[C@H](O)C3=C(C)[C@@H](OC(=O)[C@H](OC(=O)CN4CCN(C)CC4)[C@@H](NC(=O)OC(C)(C)C)c4ccccc4)C[C@@](O)([C@@H](OC(=O)c4ccccc4)[C@H]21)C3(C)C | 53 h
CC(=O)O[C@@]12CO[C@@H]1C[C@H](O)[C@@]1(C)C(=O)[C@H](O)C3=C(C)[C@@H](OC(=O)[C@H](O)[C@@H](NC(=O)OC(C)(C)C)c4ccccc4)C[C@@](O)([C@@H](OC(=O)c4ccccc4)[C@H]21)C3(C)C | 51.9 h

---

# PROCEDURE_DETAILS: clinical
# TEST_SETTINGS: human, in vivo, average t1/2 for TD-1
ENDPOINT: half-life

CC(=O)O[C@@]12CO[C@@H]1C[C@H](O)[C@@]1(C)C(=O)[C@H](O)C3=C(C)[C@@H](OC(=O)[C@H](OC(=O)CN4CCN(C)CC4)[C@@H](NC(=O)OC(C)(C)C)c4ccccc4)C[C@@](O)([C@@H](OC(=O)c4ccccc4)[C@H]21)C3(C)C [TD-1] | ~51 h

---

# PROCEDURE_DETAILS: clinical
# TEST_SETTINGS: human, in vivo, iv, 160 mg/m2, t1/2
ENDPOINT: half-life (days)

CC(=O)O[C@@]12CO[C@@H]1C[C@H](O)[C@@]1(C)C(=O)[C@H](O)C3=C(C)[C@@H](OC(=O)[C@H](O)[C@@H](NC(=O)OC(C)(C)C)c4ccccc4)C[C@@](O)([C@@H](OC(=O)c4ccccc4)[C@H]21)C3(C)C | 2.13
CC(=O)O[C@@]12CO[C@@H]1C[C@H](O)[C@@]1(C)C(=O)[C@H](O)C3=C(C)[C@@H](OC(=O)[C@H](OC(=O)CN4CCN(C)CC4)[C@@H](NC(=O)OC(C)(C)C)c4ccccc4)C[C@@](O)([C@@H](OC(=O)c4ccccc4)[C@H]21)C3(C)C | 2.75

---

# PROCEDURE_DETAILS: clinical
# TEST_SETTINGS: human, in vivo, iv, 80 mg/m2
Parameter Cmax: see the listing below.
ENDPOINT: Cmax (ng/mL)

CC(=O)O[C@@]12CO[C@@H]1C[C@H](O)[C@@]1(C)C(=O)[C@H](O)C3=C(C)[C@@H](OC(=O)[C@H](O)[C@@H](NC(=O)OC(C)(C)C)c4ccccc4)C[C@@](O)([C@@H](OC(=O)c4ccccc4)[C@H]21)C3(C)C [Docetaxel, docetaxel] | 307
CC(=O)O[C@@]12CO[C@@H]1C[C@H](O)[C@@]1(C)C(=O)[C@H](O)C3=C(C)[C@@H](OC(=O)[C@H](OC(=O)CN4CCN(C)CC4)[C@@H](NC(=O)OC(C)(C)C)c4ccccc4)C[C@@](O)([C@@H](OC(=O)c4ccccc4)[C@H]21)C3(C)C [TD-1] | 43400

All figures here come from patent US20160250177A1.
